- tested on: recombinant human KLK5 (human) (UniProt Q9Y337)
- Sequence (Q9Y337 67-293): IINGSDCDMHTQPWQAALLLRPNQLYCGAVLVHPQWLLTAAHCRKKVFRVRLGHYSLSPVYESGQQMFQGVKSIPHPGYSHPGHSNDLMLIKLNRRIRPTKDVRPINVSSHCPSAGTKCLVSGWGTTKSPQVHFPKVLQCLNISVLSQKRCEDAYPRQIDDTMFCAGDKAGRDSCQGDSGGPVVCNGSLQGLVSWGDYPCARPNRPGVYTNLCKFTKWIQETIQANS
- assay summary: KLK5 direct activity assay, 5 nM KLK5, Boc-VPR-AMC
result type: IC50 (read off the curve) (nM)
One number for each entry, in nM.

| binder | IC50 (read off the curve), nM |
| --- | --- |
| 10C5 (antibody, V domains shown) VH: QSLEESGGGLVKPTDTLTLTCTVSGFSLSSYGVTWVRQAPGRGLEWIGYITSNYGVSYYASWAKSRSTITRNTNLNTVTLKMTSLTAADTATYFCARENPDYGYAYDAWGPGTLVTVSV VL: AYDMTQTPASLEAAVGGTVTINCQASESISNELSWYQQKPGQPPDLLIYYASTLASGVPSRFKGSGSGTEFTLTISDLECADAATYYCAQGFGSSGVENVFGGGTEVVVK | 1 |

Request the reported IC50 (read off the curve) associated with 2-3F4 (antibody, V domains shown) VH: QSVEESRGGLIKPTDTLTLTCTASGFSLSNYGVSWVRQAPGNGLEYIGFIGYGGSTYYASWAKSRSTITRNTNLNTVTLQMTSLTAADTATYFCARLCGVDCADALDSWGPGTLVTVSS VL: AYYMTQTPASVEVAVGGTVTIKCQASEDIGSYCSWYQQKPGQPPKLLIYDASDLASGVPSRFKGSGSGTDFTLTISGVQCDDAATYYCQQDYTGNNVDNTFGGGSEVVVK
1

meta.source: patent US20200040103A1
